Data origin, for the record: paper PMC11530593

Target: HCN1 mutant D140A (Homo sapiens, UniProt O60741, D140A)
Construct: Full-length WT or mutant human HCN1 were cloned into the pcDNA3.1 vector
Sequence (O60741 whole entry D140A): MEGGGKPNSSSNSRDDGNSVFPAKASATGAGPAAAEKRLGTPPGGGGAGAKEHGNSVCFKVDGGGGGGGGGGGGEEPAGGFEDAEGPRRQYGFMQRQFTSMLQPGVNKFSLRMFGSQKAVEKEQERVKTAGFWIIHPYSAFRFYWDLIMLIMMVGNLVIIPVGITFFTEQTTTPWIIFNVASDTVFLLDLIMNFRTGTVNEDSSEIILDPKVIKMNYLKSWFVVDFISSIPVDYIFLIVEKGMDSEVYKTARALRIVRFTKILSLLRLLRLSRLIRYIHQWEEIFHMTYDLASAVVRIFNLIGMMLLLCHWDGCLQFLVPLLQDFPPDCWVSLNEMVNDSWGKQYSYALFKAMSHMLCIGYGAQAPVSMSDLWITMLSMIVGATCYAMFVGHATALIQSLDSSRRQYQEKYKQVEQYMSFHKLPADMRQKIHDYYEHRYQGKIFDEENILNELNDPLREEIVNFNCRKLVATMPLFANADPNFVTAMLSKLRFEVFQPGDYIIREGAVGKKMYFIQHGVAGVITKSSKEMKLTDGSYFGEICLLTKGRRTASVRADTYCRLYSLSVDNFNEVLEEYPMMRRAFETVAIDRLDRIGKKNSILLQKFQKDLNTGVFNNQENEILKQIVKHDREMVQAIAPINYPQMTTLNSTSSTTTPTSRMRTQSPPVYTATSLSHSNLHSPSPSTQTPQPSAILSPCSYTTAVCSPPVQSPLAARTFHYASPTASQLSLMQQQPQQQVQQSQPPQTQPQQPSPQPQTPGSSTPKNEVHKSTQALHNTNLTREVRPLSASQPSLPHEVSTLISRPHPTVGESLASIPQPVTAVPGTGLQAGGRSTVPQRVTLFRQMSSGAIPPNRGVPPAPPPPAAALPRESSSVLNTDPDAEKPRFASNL
Assay: Whole-cell patch-clamp, Ih inhibition, HCN1 mutant
Conditions: D140A mutant, electrophysiological recordings; read-out: IC50 (Fig. 2F)
pIC50: −log10 of the molar value.
Experimental readout: pIC50

> print(dat)
                              line.notation                       experimental.system  experimental.readout  endpoint.result
1  COc1cc2c(cc1OC)CC(=O)N(CCCN(C)C[C@H]1Cc3cc(OC)c(OC)cc31)CC2  HCN1 mutant D140A (Homo sapiens, UniProt O60741, D140A)                 pIC50             4.56
